melting point overview

Previously resolved entries follow.
[
  {
    "compound": "COc1ccc2c(c1)S(=O)(=O)N(CCCN1CCN(c3ncccn3)CC1)C(=O)N2",
    "melting point": "178 °C"
  },
  {
    "compound": "CC1(C)c2cccn2-c2cc(F)c(F)cc2N1S(=O)(=O)c1ccc(O)cc1",
    "melting point": "202 to 204 °C"
  }
]

For the compound CCn1ncc2c3onc(-c4cccc(OC)c4)c3cnc21 , what melting point is on record?
130 to 131 °C

For the compound C=CCOc1cccc(C(=O)O)c1C(=O)O , what melting point is on record?
166 to 167 °C

For the compound COc1ccc(C(C)(CC(C)C)C(=O)NC2CCCCCCCCCCNC2=O)c(S)c1 (stereo not given) , what melting point is on record?
131 to 136 °C

* * *

melting point overview

[
  {
    "molecule": "Clc1ccc2c(NCCCN3CCCCC3)ccnc2c1",
    "melting point": "113 to 116 °C"
  },
  {
    "molecule": "Cc1nc(-c2ccc(N)c(C#N)c2)c[nH]1",
    "melting point": "89 to 91 °C"
  }
]

For the molecule N#Cc1cc(F)c(N2C(=O)C3CCCCN3C2=O)nc1Cl (stereo not given) , what melting point is on record?
192 to 193 °C

For the molecule CCNC(=O)C1=C([Si](C)(C)C)S(=O)(=O)c2ccccc21 , what melting point is on record?
135 to 148 °C

For the molecule OC(CNc1ncnc2nc[nH]c12)CN1CCN(C(c2ccc(F)cc2)c2ccc(F)cc2)CC1 (stereo not given) , what melting point is on record?
140 to 170 °C

For the molecule COc1nc2c(C)cccc2c2c1CCN2c1ccccc1C , what melting point is on record?
107 to 108 °C

For the molecule COC(=O)NNC(=O)Nc1cccc2c1C(=O)c1c-2n[nH]c1-c1ccc(OC)cc1 , what melting point is on record?
> 300 °C

For the molecule ClCC1COC(Cc2ccc(Cl)cc2)(c2ccccc2)O1 (stereo not given) , what melting point is on record?
65 °C

For the molecule C/C(=C\c1ccc(OCCS(C)=O)cc1)c1ccc2c(c1)C(C)(C)CCC2(C)C (stereo not given) , what melting point is on record?
134 to 136 °C

For the molecule COc1nc(C)cnc1N(C(=O)OCC(C)C)S(=O)(=O)c1cccnc1-c1ccc([Si](C)(C)C)cc1 , what melting point is on record?
132 to 134 °C

For the molecule NC(=O)NCC#CCN1CCCC1 , what melting point is on record?
71 to 73 °C

For the molecule CCC1(CC)Cc2cc(OC)c(Cl)c(Cl)c2C1=O , what melting point is on record?
118 °C

For the molecule O=S(=O)(c1ccc(Cl)cc1)C(c1cc(F)ccc1F)C1CCCCC1 (stereo not given) , what melting point is on record?
107 to 109 °C

For the molecule CCCCOc1ccc(S(C)(=O)=O)cc1C(=O)Nc1c(C(N)=O)nn(C2CN(C(C)C)C2)c1CC , what melting point is on record?
198 to 201 °C

For the molecule COc1ccc(-c2cc(COCCc3cccc(NS(=O)(=O)C(F)(F)F)c3)ccc2F)cc1 , what melting point is on record?
70 to 71 °C

For the molecule CC(C)n1c(=O)nc(-c2ccc(N(C)C)cc2)c2cc3c(cc21)OCO3 , what melting point is on record?
240 to 245 °C

For the molecule CC(C)C1(C)Cc2cc(OCC(=O)O)c(Cl)c(Cl)c2C1=O (stereo not given) , what melting point is on record?
148 °C

For the molecule COC(=O)C(COc1ccc(Cl)cc1C#N)Oc1ccccc1Cl (stereo not given) , what melting point is on record?
105 °C

For the molecule Cn1c(CN2C(=O)c3ccccc3C2=O)c(-c2ccc(O)cc2)c2cc(Cl)ccc2c1=O , what melting point is on record?
307 to 308 °C

For the molecule CCS(=O)(=O)c1cc(C(C)(C)C)cc(C=O)c1O , what melting point is on record?
92 to 93 °C

* * *

melting point overview

Previously resolved entries follow.
[
  {
    "molecule": "O=C(O)C1=Cc2cc(-c3ccc(Cl)cc3)ccc2OCC1",
    "melting point": "263 to 264 °C"
  },
  {
    "molecule": "O=C(c1cc2cc(OCCNC[C@H](O)COc3ccccc3)ccc2[nH]1)N1CCCC1",
    "melting point": "110 to 115 °C"
  },
  {
    "molecule": "O=C(Cl)c1ccccc1NC(=O)c1ccccc1-c1ccccc1",
    "melting point": "118 to 120 °C"
  },
  {
    "molecule": "CCCCCCCCCCCCC(Oc1ccc(NS(=O)(=O)CCCC)cc1)C(=O)O (stereo not drawn)",
    "melting point": "80 to 82 °C"
  },
  {
    "molecule": "CC(O)C(C)Sc1sc(-c2cc[nH]n2)c2c1C(=O)CC(C)(C)C2 (stereo not drawn)",
    "melting point": "171 to 174 °C"
  },
  {
    "molecule": "O=c1cc(-c2ccccc2)oc2cc(OCCCCCCN3CCC(O)CC3)ccc12",
    "melting point": "130 to 131 °C"
  },
  {
    "molecule": "CC(C)OC(=O)CC(NCCCN(C)C)C(=O)O (stereo not drawn)",
    "melting point": "164 to 166 °C"
  },
  {
    "molecule": "CC(C)OC(=O)Cn1c(=O)n(C)c(=O)n(-c2cc(N=c3oc(=O)n4n3CCCC4)c(F)cc2Cl)c1=O",
    "melting point": "115 to 120 °C"
  },
  {
    "molecule": "O=C(O)C1Cc2c(c(Cl)cc3c(-c4ccccc4F)noc23)O1 (stereo not drawn)",
    "melting point": "199 to 200 °C"
  },
  {
    "molecule": "O=C(Nc1ccc(OCCN2CCOCC2)c2ccccc12)c1cccc(N2CCOCC2)c1",
    "melting point": "90 to 92 °C"
  }
]

For the molecule Cc1c(C)c2c(c(C)c1N)CC(C)(CCc1ccc(F)cc1)O2 (stereo not drawn) , what melting point is on record?
62 to 63 °C

For the molecule CC(=O)c1cc(C(=O)OCc2ccco2)c(C2=NC(C)(C(C)C)C(=O)N2)nc1C (stereo not drawn) , what melting point is on record?
133 to 136 °C

For the molecule O=[N+]([O-])c1c(NCCCO)cc(Cl)cc1NCCCO , what melting point is on record?
127 °C

For the molecule CCCc1cccc(CNC(=O)c2nc3scc(COCc4ccc(C(=O)O)cc4)c3c(=O)[nH]2)c1 , what melting point is on record?
235 to 237 °C

For the molecule Cc1ccc(-c2ncc3c(n2)CCCC3)nc1Br , what melting point is on record?
125 to 128 °C

* * *

propertyName: melting point

[
  {
    "molecule": "CC(C)OCCNC(=O)c1n[nH]cc1NC(=O)c1ccccc1",
    "propertyName": "melting point",
    "result": "121 to 122 °C"
  },
  {
    "molecule": "N#Cc1ccc2[nH]cc(CCN)c2c1",
    "propertyName": "melting point",
    "result": "102 to 105 °C"
  },
  {
    "molecule": "Cc1cc2cc(C3(O)CCN(C)CC3)ccc2o1",
    "propertyName": "melting point",
    "result": "118 to 120 °C"
  },
  {
    "molecule": "O=C(O)C1=Cc2cc(Cl)c(Oc3ccc(Cl)cc3)cc2OC1C(F)(F)F (stereo unspecified)",
    "propertyName": "melting point",
    "result": "205 to 206 °C"
  },
  {
    "molecule": "COCCOc1ccc(CCC(=O)NS(=O)(=O)c2ccc(Cl)cc2)c(Oc2ncc(C(F)(F)F)cc2Cl)c1",
    "propertyName": "melting point",
    "result": "140 to 142 °C"
  },
  {
    "molecule": "CN(CCCNC(=S)c1cc(C(C)(C)C)c(O)c(C(C)(C)C)c1)CCOc1ccc2c(c1)OCO2",
    "propertyName": "melting point",
    "result": "114 to 115 °C"
  },
  {
    "molecule": "N=C(N)N(CCCCCCCCCCC(=O)O)C(=O)c1nc(Cl)c(N)nc1N",
    "propertyName": "melting point",
    "result": "181 to 191 °C"
  },
  {
    "molecule": "Cn1nc(-c2cc3nccnc3[nH]2)cc1-c1ccccc1",
    "propertyName": "melting point",
    "result": "222 to 223 °C"
  },
  {
    "molecule": "Cc1ccc(C(=O)O)c(Nc2ccc3[nH]ncc3c2)n1",
    "propertyName": "melting point",
    "result": "252 to 254 °C"
  },
  {
    "molecule": "C1=Cc2cccnc2Nc2ncccc21",
    "propertyName": "melting point",
    "result": "126 to 129 °C"
  }
]

For the molecule COC(=O)C(c1ccc(NC(C)=O)cc1)C1CC1 (stereo unspecified) , what melting point is on record?
159 to 162 °C

For the molecule NS(=O)(=O)c1ccc(-c2cnn(CC(F)(F)F)c(=O)c2-c2ccc(Cl)c(F)c2)cc1 , what melting point is on record?
180 to 183 °C

For the molecule COc1cc(-c2ccc([N+](=O)[O-])cn2)cc(OC)c1OC , what melting point is on record?
134 to 136 °C

For the molecule NS(=O)(=O)c1cc2nc(O)c(O)nc2c2ccccc12 , what melting point is on record?
> 300 °C

For the molecule CCCCCCCCCCCCCCCCCCCCC(=O)Nc1ccn(C2OC(CO)C(O)C2O)c(=O)n1 (stereo unspecified) , what melting point is on record?
139 to 142 °C

For the molecule CN1C(=O)CCc2cc(Cl)ccc21 , what melting point is on record?
76 to 78 °C

For the molecule Cc1ccc(Oc2ccc(-c3ccc(Cl)cc3)cc2)cc1 , what melting point is on record?
130 °C

For the molecule COc1ccc(C)cc1NC(=O)Nc1ccc2c(c1)CCN(C(=O)Nc1ccc(OCCO)cc1C(F)(F)F)C2 , what melting point is on record?
122 to 124 °C

For the molecule Clc1ccc2c(c1)C(c1ccccc1)=NCc1nnc(CNC3CC3)n1-2 , what melting point is on record?
164 to 169 °C

For the molecule COc1ccc(S(=O)(=O)n2c(N)nc3c2c(=O)n(CC2CC2)c(=O)n3CC2CC2)cc1 , what melting point is on record?
177 to 178 °C

For the molecule O=C1CN=C(c2ccccc2)c2ccccc2N1CC(F)(F)F , what melting point is on record?
130 to 131 °C
